Tested on: A549 (lung)
experiment.summary: MTT antiproliferative assay, A549
Assay type: cell-based
condition.context: Homo sapiens, 72 h treatment, mean ± SD of 5–6 data
pIC50: −log10 of the molar value.

| compound | pIC50 |
| --- | --- |
| Cc1c(C(=O)C2C(c3cccc(Br)c3)C3CSCN3C23C(=O)Nc2ccccc23)cnn1-c1ccccc1 (stereo not shown) [8m] | 4.75 |

###

Test system: MDA-MB-453 (breast; mutant p53)
experiment.summary: MTT antiproliferative assay, MDA-MB-453
Assay type: cell-based
condition.context: Homo sapiens; MDA-MB-453, MTT, 72 h treatment, mean ± SD of 5–6 data
property: IC50 (µM)

| compound | quantitative.result |
| --- | --- |
| Cc1c(C(=O)C2C(c3ccc(C(F)(F)F)cc3)C3CSCN3C23C(=O)Nc2ccccc23)cnn1-c1ccccc1 (stereo not shown) | 21.4 |

###

Below, each of the molecules is paired with its reported melting point value.

| molecule | melting point |
| --- | --- |
| Cc1c(C(=O)C2C(c3ccccn3)C3CSCN3C23C(=O)Nc2ccccc23)cnn1-c1ccccc1 (centres unmarked) | 135 to 136 °C |
| Cc1c(C(=O)C2C(c3ccc(Cl)cc3Cl)C3CSCN3C23C(=O)Nc2ccccc23)cnn1-c1ccccc1 (centres unmarked) | 141 to 142 °C |
| Cc1c(C(=O)C2C(c3ccccc3)C3CSCN3C23C(=O)Nc2ccccc23)cnn1-c1ccccc1 (centres unmarked) | 229 to 230 °C |
| Cc1c(C(=O)C2C(c3cccc(F)c3)C3CSCN3C23C(=O)Nc2ccccc23)cnn1-c1ccccc1 (centres unmarked) | 125 to 126 °C |
| Cc1c(C(=O)C2C(/C=C/c3ccccc3)C3CSCN3C23C(=O)Nc2ccccc23)cnn1-c1ccccc1 (centres unmarked) | 144 to 145 °C |
| Cc1ccc(C2C3CSCN3C3(C(=O)Nc4ccccc43)C2C(=O)c2cnn(-c3ccccc3)c2C)cc1 (centres unmarked) | 134 to 135 °C |
| COc1ccc(C2C3CSCN3C3(C(=O)Nc4ccccc43)C2C(=O)c2cnn(-c3ccccc3)c2C)cc1 (centres unmarked) | 109 to 110 °C |
| Cc1c(C(=O)C2C(c3ccc(C(F)(F)F)cc3)C3CSCN3C23C(=O)Nc2ccccc23)cnn1-c1ccccc1 (centres unmarked) | 138 to 139 °C |
| Cc1c(C(=O)C2C(c3ccc([N+](=O)[O-])cc3)C3CSCN3C23C(=O)Nc2ccccc23)cnn1-c1ccccc1 (centres unmarked) | 142 to 143 °C |
| Cc1c(C(=O)C2C(c3cccc(Br)c3)C3CSCN3C23C(=O)Nc2ccccc23)cnn1-c1ccccc1 (centres unmarked) | 132 to 133 °C |
| Cc1cccc(C2C3CSCN3C3(C(=O)Nc4ccccc43)C2C(=O)c2cnn(-c3ccccc3)c2C)c1 (centres unmarked) | 128 to 130 °C |
| Cc1c(C(=O)C2C(c3ccc(Cl)cc3)C3CSCN3C23C(=O)Nc2ccccc23)cnn1-c1ccccc1 (centres unmarked) | 122 to 123 °C |
| Cc1c(C(=O)C2C(c3ccco3)C3CSCN3C23C(=O)Nc2ccccc23)cnn1-c1ccccc1 (centres unmarked) | 227 to 228 °C |
| Cc1c(C(=O)C2C(c3cccc([N+](=O)[O-])c3)C3CSCN3C23C(=O)Nc2ccccc23)cnn1-c1ccccc1 (centres unmarked) | 146 to 147 °C |

Recorded values, source paper PMC10167355.
